Just for reference, patent US11452717B2 is where these values come from.

# measured-target: UniProtKB P43490
# method: Enzyme Assay and NMN Detection (NAMPT reaction, fluorescence detection of NMN)
# Format: biochemical
# setup-conditions: Table B-5; NAMPT activation, NMN formation
# Experimental: NAMPT reaction was performed in 50 mM HEPES, pH 7.5, containing 5 mM MgCl2, 0.1% Prionex, 0.005% Tween 20, and 1 mM TCEP at room temperature in Greiner 384-well black polypropylene plates. […] The fluorescence (ex380/em460) was measured following another short incubation and 30 min incubation. The increased concentration of NMN was determined from a calibration curve obtained at the time of experiment.
measured-quantity: EC50

The compound listed as O=C(NCc1cnco1)Nc1ccc(S(=O)(=O)c2cccc(F)c2)cc1 has a reported EC50 of 0.1 to 2 µM

Others:
According to the records, this compound O=C(NCc1cnco1)Nc1ccc(S(=O)(=O)C2CCN(C3CCOCC3)CC2)cc1 displays EC50 of 0.1 to 2 µM

O=C(NCc1cnco1)Nc1ccc(Nc2nc(-c3ccccc3)cs2)cc1 yielded EC50 of 2 to 5 µM

----------
Here, each record is paired with measured pEC50 data.
# measured-target: NAMPT enzyme (Homo sapiens (Human))
# method: Enzyme Assay and NMN Detection (NAMPT reaction, fluorescence detection of NMN)
# Format: biochemical
# setup-conditions: Table B-4; NAMPT activation, NMN formation
pEC50: −log10 of the molar value.

pEC50 reading for O=C(NCc1cn[nH]c1)Nc1ccc(S(=O)(=O)c2ncccn2)cc1 : 5.30 to 5.70

The compound O=C(NCc1cn[nH]c1)Nc1ccc(S(=O)(=O)c2cc(F)cc(F)c2)cc1 showed pEC50 equal to > 7.00

Notebook: Cc1ccccc1S(=O)(=O)c1ccc(NC(=O)NCc2cn[nH]c2)cc1 , pEC50 read as > 7.00

New cases:
pEC50 for CC(C)n1cc(S(=O)(=O)c2ccc(NC(=O)NCc3cn[nH]c3)cc2)cn1 is > 7.00

Lab note: O=C(NCc1cn[nH]c1)Nc1ccc(S(=O)(=O)c2ccccc2-c2ccc(F)cc2)cc1 gave pEC50 of 5.70 to 7.00

Record O=C(NCc1cn[nH]c1)Nc1ccc(Nc2nc(-c3ccc(F)cc3)cs2)cc1 , field pEC50: 5.70 to 7.00

Entry under test: O=C(NCc1cn[nH]c1)Nc1ccc(S(=O)(=O)c2ccc(F)cc2F)cc1 . Its pEC50 was > 7.00

get_value(item= O=C(NCc1cn[nH]c1)Nc1ccc(NS(=O)(=O)Cc2cccc(Cl)c2)cc1 , readout=pEC50) returns > 7.00

The reported pEC50 of the compound O=C(NCc1cn[nH]c1)Nc1ccc(-c2cccc3scnc23)cc1 was 5.70 to 7.00

So, O=C(NCc1cn[nH]c1)Nc1ccc(Nc2ncc(-c3ccccc3)s2)cc1 ? Its pEC50 was 5.70 to 7.00

----------
# measured-target: NAMPT enzyme (Homo sapiens (Human), UniProt P43490)
# Sequence (P43490 whole entry, species assumed): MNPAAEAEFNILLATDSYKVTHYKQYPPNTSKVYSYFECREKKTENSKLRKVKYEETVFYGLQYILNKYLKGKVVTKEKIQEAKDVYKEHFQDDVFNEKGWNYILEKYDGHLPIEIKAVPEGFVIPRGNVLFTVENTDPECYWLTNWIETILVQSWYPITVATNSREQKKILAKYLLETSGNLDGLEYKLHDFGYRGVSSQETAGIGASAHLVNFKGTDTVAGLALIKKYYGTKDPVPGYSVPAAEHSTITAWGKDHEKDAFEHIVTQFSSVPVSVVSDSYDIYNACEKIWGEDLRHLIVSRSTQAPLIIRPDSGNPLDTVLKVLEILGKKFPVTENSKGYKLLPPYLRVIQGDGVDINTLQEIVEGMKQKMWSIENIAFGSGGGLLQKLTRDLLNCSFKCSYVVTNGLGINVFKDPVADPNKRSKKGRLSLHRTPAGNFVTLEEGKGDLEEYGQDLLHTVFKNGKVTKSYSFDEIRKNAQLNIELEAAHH
# method: Enzyme Assay and NMN Detection (NAMPT reaction, fluorescence detection of NMN)
# Format: biochemical
# setup-conditions: Table B-2; NAMPT activation, NMN formation
measured-quantity: EC50

EC50 for O=C(NCc1ccncc1)Nc1ccc(NS(=O)(=O)c2cccc(Cl)c2)cc1 is < 100 nM

// field: EC50; key: CC(C)CNC(=O)c1ccc(NC(=O)NCc2ccncc2)cc1 ; value = 100 to 2000 nM

Sample O=C(NCc1ccncc1)Nc1ccc(S(=O)(=O)N2CCCC2)cc1 ; EC50 observed: 100 to 2000 nM

More entries:
# compound Cc1ccc(CNC(=O)c2ccc(NC(=O)NCc3ccncc3)cc2)cc1 ; its EC50 = > 20000 nM

# EC50 of O=C(NCc1ccncc1)Nc1ccc(NS(=O)(=O)c2ccccc2)cc1 = < 100 nM

Record O=C(NCc1ccncc1)Nc1ccc(S(=O)(=O)NCc2ccccc2Cl)cc1 . Reported EC50: < 100 nM

For record O=C(NCc1ccncc1)Nc1ccc(S(=O)(=O)NCC2CC2)cc1 the listed EC50 is 100 to 2000 nM

# EC50 (compound: NC(=O)c1ccc(NC(=O)NCc2ccncc2)cc1 ) is 5000 to 20000 nM

// recorded EC50 for O=C(NCc1ccncc1)Nc1ccc(S(=O)(=O)NCc2ccc(C(F)(F)F)cc2)cc1 : 100 to 2000 nM

Entry CN(c1ccccc1)S(=O)(=O)Cc1ccc(NC(=O)NCc2ccncc2)cc1 ; EC50 = 100 to 2000 nM

Entry under test: O=C(NCc1ccncc1)Nc1ccc(S(=O)(=O)NC2CCCC2)cc1 . Its EC50 was 100 to 2000 nM

----------
# measured-target: NAMPT enzyme (Homo sapiens (Human), UniProt P43490)
# method: Enzyme Assay and NMN Detection (NAMPT reaction, fluorescence detection of NMN)
# Type: biochemical
# setup-conditions: Table B-5; NAMPT activation, NMN formation
pEC50: −log10 of the molar value.
measured-quantity: pEC50

Worked cases, pEC50 given:
Consider O=C(NCc1cnco1)Nc1ccc(S(=O)(=O)c2ccccc2C(F)(F)F)cc1 . Its measured pEC50 is 5.70 to 7.00

# pEC50 of O=C(NCc1cnco1)Nc1ccc(S(=O)(=O)c2ccccc2F)cc1 = 5.70 to 7.00

Form: molecule = Cn1nc(-c2ccc(NC(=O)NCc3cnco3)cc2)c2ccccc21 ; pEC50 = 5.30 to 5.70

More entries:
Quick note, pEC50 for COc1ccc(S(=O)(=O)c2ccc(NC(=O)NCc3cnco3)cc2)cc1 landed at 5.70 to 7.00

Recorded result, O=C(NCc1cnco1)Nc1ccc(-c2ncc(-c3ccccc3)s2)cc1 , pEC50: 4.70 to 5.30

----------
# measured-target: NAMPT enzyme (Homo sapiens (Human), UniProt P43490)
# method: Enzyme Assay and NMN Detection (NAMPT reaction, fluorescence detection of NMN)
# Format: biochemical
# setup-conditions: Table B-6; NAMPT activation, NMN formation
pEC50: −log10 of the molar value.
Entries and their pEC50 values follow.

// worked examples, pEC50 included
For record O=C(NCc1ccncc1)Nc1ccc(S(=O)(=O)c2ccccc2-c2cccnc2)cc1 the listed pEC50 is 5.70 to 7.00

The compound listed as COc1ccc2c(c1)c(-c1ccc(NC(=O)NCc3ccncc3)cc1)nn2C has a reported pEC50 of 5.70 to 7.00

The value of pEC50 measured for the compound Cn1nc(-c2ccc(NC(=O)NCc3ccncc3)cc2)c2ncccc21 turned out to be 5.70 to 7.00

compound Cn1nc(-c2ccc(NC(=O)NCc3ccncc3)cc2)c2cccnc21 , pEC50 observed: 4.70 to 5.30

pEC50 reading for O=C(NCc1ccncc1)Nc1ccc(NS(=O)(=O)Cc2ccc(Br)cc2)cc1 : > 7.00

***
Reported pEC50 ( Cc1cccc(S(=O)(=O)c2ccc(NC(=O)NCc3ccncc3)cc2)c1 ) = 5.70 to 7.00

Just so you know, measured pEC50 for O=C(NCc1ccncc1)Nc1ccc(S(=O)(=O)c2ccccc2-c2cccc(F)c2)cc1 came out at > 7.00

Lab note: measured pEC50 of O=C(NCc1ccncc1)Nc1ccc(Nc2nc(-c3ccccc3)cs2)cc1 was 5.70 to 7.00

GET /value?item= Cc1cccc(-c2ccccc2S(=O)(=O)c2ccc(NC(=O)NCc3ccncc3)cc2)c1 &field=pEC50 returns 5.70 to 7.00

pEC50 reading for Cc1cccc2c1c(-c1ccc(NC(=O)NCc3ccncc3)cc1)nn2C : 5.70 to 7.00

Lookup result for Cc1ccc(S(=O)(=O)c2ccc(NC(=O)NCc3ccncc3)cc2)cc1 ; measured pEC50: > 7.00

pEC50 recorded for this compound, O=C(NCc1ccncc1)Nc1ccc(S(=O)(=O)c2cccc(OC(F)(F)F)c2)cc1 , is > 7.00

----------
# measured-target: NAMPT enzyme (Homo sapiens (Human))
# method: Enzyme Assay and NMN Detection (NAMPT reaction, fluorescence detection of NMN)
# Assay type: biochemical
# setup-conditions: Table B-2; NAMPT activation, NMN formation
pEC50: −log10 of the molar value.
measured-quantity: pEC50

Recorded result, COc1ccc(NS(=O)(=O)c2ccc(NC(=O)NCc3ccncc3)cc2)cc1 , pEC50: 5.70 to 7.00

Short answer for N#Cc1ccccc1CNS(=O)(=O)c1ccc(NC(=O)NCc2ccncc2)cc1 : pEC50 was 5.70 to 7.00

For this compound ( CC1Cc2ccccc2CN1S(=O)(=O)c1ccc(NC(=O)NCc2ccncc2)cc1 (centres unmarked) ), measured pEC50 is 5.70 to 7.00

pEC50 recorded for this compound, O=C(NCc1ccncc1)Nc1ccc(C(=O)Nc2cccs2)cc1 , is 5.30 to 5.70

New cases:
// O=C(NCc1ccncc1)Nc1ccc(C(=O)NCCN2CCCC2)cc1 : pEC50 value = 5.30 to 5.70
